Task for the reader: assign each of the following molecules its reported IC50.
- Tested System: LRRK2 (Homo sapiens, UniProt Q5S007)
- Sequence (Q5S007 970-2527 limits assumed): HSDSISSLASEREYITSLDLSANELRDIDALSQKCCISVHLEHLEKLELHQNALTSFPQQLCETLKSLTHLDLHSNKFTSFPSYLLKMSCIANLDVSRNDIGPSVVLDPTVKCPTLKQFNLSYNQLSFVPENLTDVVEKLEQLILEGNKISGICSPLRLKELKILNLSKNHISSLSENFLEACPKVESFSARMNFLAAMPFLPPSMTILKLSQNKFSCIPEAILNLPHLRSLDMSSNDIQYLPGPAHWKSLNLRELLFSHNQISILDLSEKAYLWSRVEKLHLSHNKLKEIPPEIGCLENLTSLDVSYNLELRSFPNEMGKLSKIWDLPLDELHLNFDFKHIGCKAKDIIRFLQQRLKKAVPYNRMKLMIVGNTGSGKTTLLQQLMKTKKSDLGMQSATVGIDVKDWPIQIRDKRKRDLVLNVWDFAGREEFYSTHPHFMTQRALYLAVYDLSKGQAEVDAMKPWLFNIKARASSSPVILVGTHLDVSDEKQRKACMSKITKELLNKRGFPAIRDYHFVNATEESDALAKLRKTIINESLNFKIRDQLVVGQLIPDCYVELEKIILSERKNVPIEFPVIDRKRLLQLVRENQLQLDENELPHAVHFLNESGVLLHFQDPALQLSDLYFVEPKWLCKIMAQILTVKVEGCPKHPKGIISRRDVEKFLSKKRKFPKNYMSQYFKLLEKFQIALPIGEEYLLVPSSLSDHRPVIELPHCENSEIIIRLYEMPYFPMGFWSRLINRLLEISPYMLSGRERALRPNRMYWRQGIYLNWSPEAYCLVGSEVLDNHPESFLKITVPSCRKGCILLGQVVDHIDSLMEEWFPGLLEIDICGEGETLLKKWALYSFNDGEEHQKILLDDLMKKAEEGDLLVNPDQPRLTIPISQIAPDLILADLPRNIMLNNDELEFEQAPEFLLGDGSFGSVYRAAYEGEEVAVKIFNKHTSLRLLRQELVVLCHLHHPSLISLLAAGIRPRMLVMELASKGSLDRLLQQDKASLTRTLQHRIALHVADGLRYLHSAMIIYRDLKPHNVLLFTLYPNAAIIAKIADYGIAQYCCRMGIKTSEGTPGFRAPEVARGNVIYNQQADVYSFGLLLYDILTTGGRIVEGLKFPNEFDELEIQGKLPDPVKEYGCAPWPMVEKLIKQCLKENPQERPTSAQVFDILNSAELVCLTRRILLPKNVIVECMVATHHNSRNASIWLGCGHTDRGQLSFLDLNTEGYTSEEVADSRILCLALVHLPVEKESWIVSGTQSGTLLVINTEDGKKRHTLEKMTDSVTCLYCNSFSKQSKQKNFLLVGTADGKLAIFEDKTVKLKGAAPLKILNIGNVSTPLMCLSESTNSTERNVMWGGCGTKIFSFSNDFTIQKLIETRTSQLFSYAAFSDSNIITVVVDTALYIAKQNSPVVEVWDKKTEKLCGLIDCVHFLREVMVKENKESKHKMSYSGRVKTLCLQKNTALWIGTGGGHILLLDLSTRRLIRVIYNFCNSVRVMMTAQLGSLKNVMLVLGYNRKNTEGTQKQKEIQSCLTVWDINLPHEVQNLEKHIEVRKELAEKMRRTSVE
- Measurement Protocol: LRRK2 assay (LanthaScreen Eu Kinase Binding Assay)
- Condition Context: 5 nM LRRK2, 10 nM tracer 236, RT 1 h; read-out: LRRK2 Activites: IC50

Here is how some molecules turned out for IC50.
>>> df
                                   molecule                         tested_system         reading
0  COc1ccc2nc(Nc3ccc(S(N)(=O)=O)cc3)c3n[nH]cc3c2c1 [Example #132]  LRRK2 (Homo sapiens, UniProt Q5S007)    10 to 100 nM
1  COc1ccc2nc(Nc3ccc(CN4CCOCC4)cc3)c3n[nH]cc3c2c1 [Example #237]  LRRK2 (Homo sapiens, UniProt Q5S007)    10 to 100 nM
2  COc1ccc2nc(Nc3cccc(S(=O)(=O)CCO)c3)c3n[nH]cc3c2c1 [Example #351]  LRRK2 (Homo sapiens, UniProt Q5S007)  100 to 1000 nM
3  COc1ccc2nc(Nc3ccccc3)c3n[nH]cc3c2c1 [Example #13]  LRRK2 (Homo sapiens, UniProt Q5S007)  100 to 1000 nM
4  COc1ccc2nc(Nc3cc[nH]n3)c3n[nH]cc3c2c1 [Example #66]  LRRK2 (Homo sapiens, UniProt Q5S007)  100 to 1000 nM

I need IC50 for every entry listed below, if you could help.
1. COc1ccc2nc(Nc3cccc(C)c3)c3n[nH]cc3c2c1 [Example #37]
2. COc1ccc2nc(Nc3ccc(N4CCOCC4)cc3)c3n[nH]cc3c2c1 [Example #54]
3. COc1ccc2nc(Nc3ccc(N4CCS(=O)(=O)CC4)cc3)c3n[nH]cc3c2c1 [Example #111]
4. COc1ccc2nc(Nc3ccc(N4CCCCC4)cc3)c3n[nH]cc3c2c1 [Example #50]

Result:
["100 to 1000 nM", "10 to 100 nM", "10 to 100 nM", "100 to 1000 nM"]

---

- Tested System: LRRK2 (Homo sapiens, UniProt Q5S007)
- Measurement Protocol: LRRK2 assay (LanthaScreen Eu Kinase Binding Assay)
- Condition Context: 5 nM LRRK2, 10 nM tracer 236, RT 1 h; read-out: LRRK2 Activites: IC50
pIC50: −log10 of the molar value.
Assay Metric: pIC50

Here is how some molecules turned out for pIC50.
                                   molecule  assay_metric       reading
0  COCC1CCCN1C(=O)c1ccc(Nc2nc3ccc(OC)cc3c3c[nH]nc23)cc1 (stereo not shown) [Example #301]         pIC50  7.00 to 8.00
1  COc1cccc2nc(Nc3cccc(S(C)(=O)=O)c3)c3[nH]ncc3c12 [Example #338]         pIC50  6.00 to 7.00
2  COc1cc2nc(Nc3ccc(N4CCN(C)CC4)cc3)c3n[nH]cc3c2cc1OC [Example #134]         pIC50  6.00 to 7.00

I need pIC50 for every entry listed below, if you could help.
1. COc1ccc2nc(Nc3ccc(C(=O)N4CCN(C)CC4)cc3)c3n[nH]cc3c2c1 [Example #235]
2. COc1cccc2c1nc(Nc1ccc3[nH]ncc3c1)c1n[nH]cc12 [Example #268]
3. COc1ccc(Nc2nc3cccc(F)c3c3cn[nH]c23)cc1OC [Example #361]
4. COc1ccc2nc(Nc3ccc(CCN4CCOCC4)cc3)c3n[nH]cc3c2c1 [Example #193]
5. Cc1[nH]nc2c(Nc3ccc4cn[nH]c4c3)nc3ccccc3c12 [Example #209]
6. CC(=O)N1CCN(c2ccc(Nc3nc4ccc(F)cc4c4cn[nH]c34)cc2)CC1 [Example #323]
7. COc1ccc2nc(Nc3ccc(CN4CCN(C)CC4)cc3)c3n[nH]cc3c2c1 [Example #238]

Result:
7.00 to 8.00
6.00 to 7.00
6.00 to 7.00
6.00 to 7.00
7.00 to 8.00
6.00 to 7.00
6.00 to 7.00
